- Tested on: Epidermal growth factor receptor (Homo sapiens), P00533 [L858R]
- Sequence (P00533 whole entry L858R): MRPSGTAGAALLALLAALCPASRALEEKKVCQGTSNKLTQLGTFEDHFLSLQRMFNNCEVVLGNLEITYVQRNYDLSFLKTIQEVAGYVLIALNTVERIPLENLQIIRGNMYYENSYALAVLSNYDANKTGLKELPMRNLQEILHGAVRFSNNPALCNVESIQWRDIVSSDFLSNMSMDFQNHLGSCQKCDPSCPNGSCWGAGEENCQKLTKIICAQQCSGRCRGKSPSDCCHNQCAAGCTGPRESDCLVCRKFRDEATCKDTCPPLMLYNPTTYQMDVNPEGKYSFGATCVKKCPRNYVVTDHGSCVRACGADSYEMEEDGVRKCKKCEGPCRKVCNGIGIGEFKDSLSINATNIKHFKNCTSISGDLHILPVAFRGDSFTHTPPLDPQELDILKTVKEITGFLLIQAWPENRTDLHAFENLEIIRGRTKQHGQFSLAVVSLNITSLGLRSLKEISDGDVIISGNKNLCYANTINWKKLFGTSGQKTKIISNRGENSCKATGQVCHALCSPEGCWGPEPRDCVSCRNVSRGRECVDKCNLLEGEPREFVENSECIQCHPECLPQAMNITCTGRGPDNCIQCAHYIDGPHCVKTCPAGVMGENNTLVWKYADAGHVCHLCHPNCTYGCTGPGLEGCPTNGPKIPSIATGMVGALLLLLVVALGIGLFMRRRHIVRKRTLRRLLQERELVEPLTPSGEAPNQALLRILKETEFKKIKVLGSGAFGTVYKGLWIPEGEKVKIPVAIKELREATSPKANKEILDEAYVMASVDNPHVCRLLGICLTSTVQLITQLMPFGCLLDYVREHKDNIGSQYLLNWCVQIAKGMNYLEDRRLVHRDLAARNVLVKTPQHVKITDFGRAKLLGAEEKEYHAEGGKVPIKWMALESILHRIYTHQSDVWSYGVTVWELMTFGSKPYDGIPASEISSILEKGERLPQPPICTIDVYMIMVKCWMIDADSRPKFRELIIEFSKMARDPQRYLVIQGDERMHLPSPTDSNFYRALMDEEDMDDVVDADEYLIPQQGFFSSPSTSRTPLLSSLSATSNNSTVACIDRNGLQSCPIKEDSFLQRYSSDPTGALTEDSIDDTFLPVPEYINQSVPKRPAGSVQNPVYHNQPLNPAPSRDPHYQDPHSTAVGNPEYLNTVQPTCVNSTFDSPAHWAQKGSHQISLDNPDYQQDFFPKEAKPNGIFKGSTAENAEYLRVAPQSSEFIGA
- test.context: at 1 µM
Give TRUE when the value for inhibition is at least 7%. Give FALSE when it is less.

* CN1CCC(n2cnc(-c3ccc(F)cc3)c2-c2ccnc(Nc3ccccc3)n2)CC1 | TRUE
* c1ccc(COc2ccc(Nc3ncnc4ccc(-c5ccco5)cc34)cc2)cc1 | TRUE
* COc1ccc2c(-c3ccnc(Nc4cccc(OC(F)(F)F)c4)n3)cnn2n1 | FALSE
* CC1=C(C(=O)Nc2cc(Cl)c3[nH]ncc3c2)C(c2ccc(C(F)(F)F)cc2)CC(=O)N1 (configuration not stated) | TRUE
* Nc1nc(-c2ccc(F)cc2)c(-c2ccc3ncccc3n2)s1 | TRUE

IN: Is inhibition at least 7%? Consider CCCN(CCS(C)(=O)=O)Cc1ccc(-c2ccc3ncnc(Nc4ccc(OCc5cccc(F)c5)c(Cl)c4)c3c2)o1
OUT: TRUE

IN: Is inhibition at least 7%? Consider CN(C)CCOc1ccc(-c2nc(-c3ccncc3)c(-c3ccc4c(c3)CC/C4=N\O)[nH]2)cc1
OUT: TRUE

IN: Is inhibition at least 7%? Consider FC(F)(F)c1cccc(-c2nn3ncccc3c2-c2ccnc(Nc3ccc4c(c3)OCCO4)n2)c1
OUT: TRUE
